experiment: NCI Yeast Anticancer Drug Screen. Data for the sgs1 mgt1 strain (AID 161);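 also: 0% = growth of cultures given vehicle only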; conditions: S. cerevisiae sgs1 mgt1 strain, at 5.0 µM (retest, dose inferred, filed as 0.5), stronger effect = higher value
This is part of a sample that, as a whole, favours compounds with a hit. Of some 79,000 tested, about 15% had one in any assay.
Readings of growth inhibition for the listed compounds
# number only, unit % dropped from output

C=CC(=O)OCCOc1ccc(Cl)cc1Cl :: 6
O=C(c1ccco1)N(C(=S)N1CCN(c2ccccn2)CC1)C1CCCCC1 :: 0

# input Reported growth inhibition for O=C(N/C=C/C=C/Sc1ccccc1)OCc1ccccc1 : what is it?
# output -20

# input Reported growth inhibition for O=P(C(=S)NC1CC2C=CC1C2)(c1ccccc1)c1ccccc1 (centres undefined) : what is it?
# output 2

# input Reported growth inhibition for CCSC(=NC)Nc1ccc(Oc2ccc(Cl)cc2)cc1 : what is it?
# output 40

# input Reported growth inhibition for CC1=CC(C)=Nc2ccc(Cl)cc2N1 : what is it?
# output -4

# input Reported growth inhibition for Oc1ccc(/C=N/NC(=S)NN2CCOCC2)nc1 : what is it?
# output 42

# input Reported growth inhibition for CCOc1ccc(NC(=O)C(=O)NO)cc1 : what is it?
# output 10

====

experiment: NCI Yeast Anticancer Drug Screen. Data for the sgs1 mgt1 strain (AID 161);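 also: 0% = growth of cultures given vehicle only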; conditions: S. cerevisiae sgs1 mgt1 strain, at 50.0 µM (retest, dose inferred, filed as 5.0)
About 79,000 compounds went through this panel and 15% of them were active in at least one assay; those are over-represented in the sample as a whole. Calls of active or inactive are those of the source. No stated cut-off is given here; in the data, active means growth inhibition above about 70%; inactive means the rest.
Use one of these outcomes when replying: active, inactive

Here's what some known entries look like.
COc1cc(/C=C/C(=O)NCCCCN=[N+]=[N-])ccc1OCc1ccccc1 :: inactive
Cc1ccc(OC(=O)c2ccc(N)cc2O)cc1 :: active
CCOc1ccc2ccccc2c1C(Cc1ccc(Cl)cc1)NCCO (stereo unspecified) :: inactive
O=C(O)c1c2ccccc2nc2[nH]c(=O)[nH]c(=O)c12 :: inactive
CC(C)C1=C(O)C2=C(C(=O)C1=O)C1(C)CCCC(C)(C)C1CC2O (stereo unspecified) :: active

# input Which outcome was assigned to Nc1nc(N)c2nc3c4ccccc4c4ccccc4c3nc2n1 in this test?
# output inactive

# input Which outcome was assigned to O=C(NNC(=O)c1ccccc1O)c1ccccc1O in this test?
# output inactive

# input Which outcome was assigned to CCCCCCC(CCCCCCCCCCC(=O)OCC(CC)CC)OC(=O)CC (stereo unspecified) in this test?
# output inactive

# input Which outcome was assigned to COc1cccc2c1C(=O)c1c(O)c3c(c(O)c1C2=O)C[C@@](O)(C(C)=O)C[C@@H]3OC1CC(N(C)C)C(O)C(C)O1 (stereo partly specified) in this test?
# output active

# input Which outcome was assigned to N#CNC1=NCOCN1 in this test?
# output inactive

# input Which outcome was assigned to OC(c1ccccc1)(c1ccccc1)c1ccccc1 (tested in a mixture with another compound) in this test?
# output active

====

Readings of growth inhibition for the listed compounds
assay: NCI Yeast Anticancer Drug Screen. Data for the mec2-1 strain (AID 157); conditions: S. cerevisiae mec2-1 strain, at 5.0 µM (retest, dose inferred, filed as 0.5), stronger effect = higher value
The panel holds about 79,000 compounds, 15% with a hit somewhere; the sample as a whole holds those more often.
# number only, unit % dropped from output

Please review the following examples before continuing.
C=CCc1c2c(ccc(=O)c1O)-c1c(cc(OC)c(OC)c1OC)CCC2NC(C)=O (stereo not drawn) :: 4
O=C1OC(c2cccnc2)OC(c2ccccc2)=C1C(=O)c1ccccc1 (stereo not drawn) :: 23
CC(=O)OCC1OC(n2c(C)c(C(C)=O)c(-c3ccco3)c(C#N)c2=S)C(OC(C)=O)C(OC(C)=O)C1OC(C)=O (stereo not drawn) :: 2
Cc1cc(C)[nH]c(=O)n1 :: -1
CCN(CC)CCCn1c2cc(=O)c(=O)cc-2[nH]c2cc(C)ccc21 :: 2
CC1=CC(=Nc2ccc(N(C)C)cc2)C=CC1=O :: -5

# input Reported growth inhibition for OCC(O)C(O)C(O)C(O)C(/C=N/Nc1ccccc1)=N/Nc1ccccc1 (stereo not drawn) : what is it?
# output -5

# input Reported growth inhibition for CCCCCCC(C(=O)OCC)N1C(=O)c2ccccc2S1(=O)=O (stereo not drawn) : what is it?
# output -5

# input Reported growth inhibition for O=[N+]([O-])c1ccc(N/N=C/CC(O)(C(F)(F)F)C(F)(F)F)c([N+](=O)[O-])c1 : what is it?
# output -1

# input Reported growth inhibition for CC(C)c1ccc(C=Nc2ccc(SSc3ccc(N=Cc4ccc(C(C)C)cc4)cc3)cc2)cc1 : what is it?
# output 26

# input Reported growth inhibition for COc1ccc2c(c1)c[n+](C)c1c3cc(OC)c(OC)cc3ccc21 : what is it?
# output 23

# input Reported growth inhibition for CC(=O)OC(c1ccccc1)c1ccc(Cl)cc1 (stereo not drawn) : what is it?
# output 7

# input Reported growth inhibition for CC1OC(OC2CC(O)(C(=O)CO)Cc3c(O)c4c(c(O)c32)C(=O)c2ccccc2C4=O)CC(N)C1O (stereo not drawn) : what is it?
# output 62

# input Reported growth inhibition for OC(c1ccccc1)(c1ccccc1)c1ccccc1 (tested in a mixture with another compound) : what is it?
# output -7

# input Reported growth inhibition for Nc1cc(F)c2c(c1)Cc1ccccc1-2 : what is it?
# output -3

# input Reported growth inhibition for Nc1ccc2cc3ccc(N)cc3nc2c1 : what is it?
# output 9

# input Reported growth inhibition for Oc1ccc(/C=N/NC(=S)NN2CCOCC2)nc1 : what is it?
# output 36

# input Reported growth inhibition for O=C(NC(C(=O)O)c1ccccc1)OCc1ccccc1 (stereo not drawn) : what is it?
# output 1

# input Reported growth inhibition for NNc1c2ccccc2nc2ccccc12 : what is it?
# output 6

# input Reported growth inhibition for CC(=O)c1ccc2ccc3ccc(O)cc3c2c1 : what is it?
# output 11

# input Reported growth inhibition for O=C1/C(=C/c2ccc(Cl)cc2)Sc2scc(-c3cccc([N+](=O)[O-])c3)[n+]21 : what is it?
# output 36

# input Reported growth inhibition for O=C1c2ccccc2C(=O)c2cc(S(=O)(=O)O)ccc21 : what is it?
# output 1

# input Reported growth inhibition for CCC1CCCC(=O)C1 (stereo not drawn) : what is it?
# output -1

====

assay: NCI Yeast Anticancer Drug Screen. Data for the sgs1 mgt1 strain (AID 161);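 also: 0% = growth of cultures given vehicle only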; conditions: S. cerevisiae sgs1 mgt1 strain, at 50.0 µM, stronger effect = higher value
About 79,000 compounds went through this panel and 15% of them were active in at least one assay; those are over-represented in the sample as a whole.
Readings of growth inhibition for the listed compounds
# number only, unit % dropped from output

Cc1cccc2c1Oc1cc(Cl)ccc1C2NC(=O)CCN1CCCCC1 (stereo not given) :: 86.3
COc1ccc(C2c3cc4c(cc3OC(NNC(N)=O)C2C)OCO4)cc1 (stereo not given) :: 87.8
Cc1cc(NCCCCCCCNc2cc(C)nc3cc([N+](=O)[O-])ccc23)c2ccc([N+](=O)[O-])cc2n1 :: 72.2
O=C1c2cc3c(cc2CC12Cc1ccccc1C2)CCC3 :: 46.9

# input Reported growth inhibition for Cc1nc(N=C(N)N)nc2ccc3ccccc3c12 : what is it?
# output 64.7

# input Reported growth inhibition for Oc1cccc2c1-c1ccccc1C2 : what is it?
# output 98.4

# input Reported growth inhibition for NC(=O)SCC(=O)NNc1ccccc1 : what is it?
# output 87.8

# input Reported growth inhibition for Cc1cc2c(C(C)C)c(O)c(O)c(C=Nc3ccccc3S)c2c(O)c1-c1c(C)cc2c(C(C)C)c(O)c(O)c(C=Nc3ccccc3S)c2c1O : what is it?
# output 57.3

# input Reported growth inhibition for C[C@H](CCC(=O)O)[C@H]1CC[C@H]2[C@@H]3[C@H](O)C[C@@H]4C[C@H](O)CC[C@]4(C)[C@H]3CC[C@]12C : what is it?
# output 92.3

# input Reported growth inhibition for Nc1nc(-c2ccccn2)cc2ccccc12 : what is it?
# output 4.35

====

test: NCI Yeast Anticancer Drug Screen. Data for the mec2-1 strain (AID 157); conditions: S. cerevisiae mec2-1 strain, at 50.0 µM (retest, dose inferred, filed as 5.0)
Compounds without any hit were thinned out: in the full panel of roughly 79,000, 15% have a hit. Activity calls are given as the source filed them. Cut-off read from the data, not from the text of the source: active = growth inhibition above about 70%; inactive = the rest.
Use one of these outcomes when replying: True (active), False (inactive)

Here's what some known entries look like.
CCCCCCCCCCCCCCCC[N+](C)(C)c1nc(Cl)nc(Cl)n1 :: True
CCCCN(CCCC)C(Cl)=Nc1ccccc1 :: False
CCOP(=O)(OCC)C(C)(CC)NC(=O)C(C(F)(F)F)C(F)(F)F (stereo unspecified) :: False
COC1OC2COC(c3ccccc3)OC2C(O)C1OS(=O)(=O)c1ccc(C)cc1 (stereo unspecified) :: False
COc1ccc(/C=C2\C=Nc3ccccc32)cc1 :: False

# input Which outcome was assigned to Cc1cc2c(C(C)C)c(O)c(O)c(C=Nc3ccccc3S)c2c(O)c1-c1c(C)cc2c(C(C)C)c(O)c(O)c(C=Nc3ccccc3S)c2c1O in this test?
# output False

# input Which outcome was assigned to CCN1CCC(O)(/C=C/c2ccc(C)cc2)C(C(=O)/C=C/c2ccc(C)cc2)C1 (stereo unspecified) in this test?
# output True

# input Which outcome was assigned to Cc1c(Cl)cccc1NC(=O)CC1Sc2ccccc2NC1=O (stereo unspecified) in this test?
# output False

# input Which outcome was assigned to CCOC(=O)c1ccc(NCc2ccc3ccccc3n2)cc1 in this test?
# output False

# input Which outcome was assigned to O=[N+]([O-])c1cc([N+](=O)[O-])c2ccccc2c1NS(=O)(=O)/C=C/c1ccccc1 in this test?
# output False

# input Which outcome was assigned to NC(CC(=O)O)C(=O)O (stereo unspecified) in this test?
# output False
